Test system: CHO cells
Test: Confocal microscopy of subcellular localization of Cy5-labeled peptides in living CHO cells (rhodamine-concanavalin A membrane stain)
Format: cell-based, Chinese hamster
Conditions: 2 hrs, Cy5/rhodamine colocalization
Description: For analysis of the subcellular localization of MCa-Cy5 analogues in living cells, cell cultures were incubated with the fluorescent peptides for 2 hrs, and then washed with phosphate-buffered saline (PBS) alone. […] Live cells were then immediately analyzed by confocal laser scanning microscopy using a Leica TCS-SPE operating system. Rhodamine (580 nm) and Cy5 (670 nm) were sequentially excited and emission fluorescence were collected in z-confocal planes of […] steps.
Square brackets hold non-standard residues; d marks the D form. Primed or numbered codes have the meaning given here. Ends that are not written are not given here. Cy5″ = Cy5 dye, coupled as maleimide to the C-terminal Cys; Abu = CC[C@H](N)C(=O)O
experimental.readout: Rhodamine-positive staining also Cy5-positive (pixels)

[[record]]
substance = "MCaUF20-33-C-Cy5: MCaUF20-33-C (SEQ ID NO: 144) labeled with Cy5 (K[Abu]KRRGTNIEKR[Abu]RC(Cy5″))"
result = "best performing"

[[record]]
substance = "MCaUF22-33-C-Cy5: MCaUF22-33-C (SEQ ID NO: 145) labeled with Cy5 (KRRGTNIEKR[Abu]RC(Cy5″))"
result = "best performing"

[[record]]
substance = "MCaUF18-33-C-Cy5: MCaUF18-33-C (SEQ ID NO: 137) labeled with Cy5 (SKK[Abu]KRRGTNIEKR[Abu]RC(Cy5″))"
result = "best performing"

[[record]]
substance = "MCaUF14-33-C-Cy5: MCaUF14-33-C (SEQ ID NO: 143) labeled with Cy5 (KD[Abu][Abu]SKK[Abu]KRRGTNIEKR[Abu]RC(Cy5″))"
result = "best performing"


# credit: patent US9439975B2
